Origin of measurements: patent US20260008754A1

Kindly state Biased Agonism Selectivity Coefficient k for each of the entries shown.
Target: μ opioid receptor (Homo sapiens)
Assay: μ opioid receptor agonism, G protein signaling pathway
Format: cell-based
Conditions: G protein pathway relative to β arrestin (ratio of the two EC50)
Answers are plain numbers.

I would be grateful if you could provide Biased Agonism Selectivity Coefficient k for each of the following entries.
1. CCOC(=O)c1cccc(CNCc2cn(-c3ccccc3)nc2-c2ccncc2)c1
2. c1ccc(-n2cc(CNCc3ccc4c(c3)OCO4)c(-c3ccncc3)n2)cc1
3. c1ccc(-c2nn(-c3ccccc3)cc2CNCc2ccc3occc3c2)cc1
4. c1ccc(-n2cc(CNCc3ccc4occc4c3)c(-c3ccncc3)n2)cc1
5. c1ccc(-n2cc(CNCc3ccc4c(c3)CCO4)c(-c3ccncc3)n2)cc1
6. CCCOC(=O)c1cccc(CNCc2cn(-c3ccccc3)nc2-c2ccncc2)c1
7. CCCOC(=O)c1cccc(CNCc2cn(-c3ccccc3)nc2-c2ccccc2)c1
8. CCOC(=O)c1cccc(CNCc2cn(-c3ccccc3)nc2-c2ccccc2)c1

(A)
9.3
2228.6
32.8
157.9
940.9
13.6
11.3
7.6

I would be grateful if you could provide Biased Agonism Selectivity Coefficient k for each of the following entries.
1. CCCNC(=O)c1cccc(CNCc2cn(-c3ccccc3)nc2-c2ccccc2)c1
2. CCCNC(=O)c1cccc(CNCc2cn(-c3ccccc3)nc2-c2ccncc2)c1

(A)
1: 34.8; 2: 26.7

====

Kindly state pEC50 for each of the entries shown.
Molecular target: μ opioid receptor (Homo sapiens, UniProt P35372)
Sequence (P35372 whole entry, species assumed): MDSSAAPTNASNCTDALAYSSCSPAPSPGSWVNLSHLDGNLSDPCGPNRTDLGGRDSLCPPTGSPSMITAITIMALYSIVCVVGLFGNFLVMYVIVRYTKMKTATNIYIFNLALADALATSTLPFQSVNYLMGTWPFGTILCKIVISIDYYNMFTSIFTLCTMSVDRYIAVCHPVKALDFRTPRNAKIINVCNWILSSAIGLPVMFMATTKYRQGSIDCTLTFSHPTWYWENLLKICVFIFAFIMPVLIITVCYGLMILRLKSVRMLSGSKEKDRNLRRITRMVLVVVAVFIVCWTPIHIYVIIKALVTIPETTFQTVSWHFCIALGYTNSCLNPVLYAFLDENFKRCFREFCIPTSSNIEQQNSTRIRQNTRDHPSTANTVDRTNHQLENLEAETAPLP
Test: μ opioid receptor agonism, β arrestin pathway
Type: cell-based
Answers are plain numbers, as −log10 of the molar value.

CCCOC(=O)c1cccc(CNCc2cn(-c3ccccc3)nc2-c2ccncc2)c1 = 5.79
c1ccc(-c2nn(-c3ccccc3)cc2CNCc2ccc3occc3c2)cc1 = 5.34
CCOC(=O)c1cccc(CNCc2cn(-c3ccccc3)nc2-c2ccncc2)c1 = 4.17
CCOC(=O)c1cccc(CNCc2cn(-c3ccccc3)nc2-c2ccccc2)c1 = 5.74
CCCNC(=O)c1cccc(CNCc2cn(-c3ccccc3)nc2-c2ccccc2)c1 = 5.30

I would be grateful if you could provide pEC50 for each of the following entries.
1. CCCNC(=O)c1cccc(CNCc2cn(-c3ccccc3)nc2-c2ccncc2)c1
2. CCCOC(=O)c1cccc(CNCc2cn(-c3ccccc3)nc2-c2ccccc2)c1

(A)
1: 4.73; 2: 6.24

====

Kindly state pEC50 for each of the entries shown.
Biological target: UniProt P35372
Assay: μ opioid receptor agonism, G protein signaling pathway
Type: cell-based
Give bare numbers, as −log10 of the molar value.

Cc1cc(C)n2c(CNCc3cn(-c4ccccc4)nc3-c3ccccc3)cnc2n1 = 5.66

I would be grateful if you could provide pEC50 for each of the following entries.
1. c1ccc(-n2cc(CNCCn3cccn3)c(-c3ccncc3)n2)cc1
2. CCOC(=O)c1cccc(CNCc2cn(-c3ccccc3)nc2-c2ccccc2)c1
3. CCCNC(=O)c1cccc(CNCc2cn(-c3ccccc3)nc2-c2ccccc2)c1

(A)
1: 5.51; 2: 4.86; 3: 6.84

I would be grateful if you could provide pEC50 for each of the following entries.
1. CCCOC(=O)c1cccc(CNCc2cn(-c3ccccc3)nc2-c2ccncc2)c1
2. CCOC(=O)c1cccc(CNCc2cn(-c3ccccc3)nc2-c2ccncc2)c1
3. CCCOC(=O)c1cccc(CNCc2cn(-c3ccccc3)nc2-c2ccccc2)c1
4. c1ccc(-c2nn(-c3ccccc3)cc2CNCc2ccc3occc3c2)cc1
5. CCCNC(=O)c1cccc(CNCc2cn(-c3ccccc3)nc2-c2ccncc2)c1
6. CC(C)Oc1ccc(CNCc2cn(-c3ccccc3)nc2-c2ccncc2)cc1

(A)
1. 4.65
2. 5.14
3. 5.19
4. 6.86
5. 6.15
6. 6.28

====

Molecular target: μ opioid receptor (Homo sapiens, UniProt P35372)
Test: μ opioid receptor agonism, β arrestin pathway
Format: cell-based
Details: μ opioid receptor, β arrestin pathway; read-out: EC50 (β arrestin)
Kindly state pEC50 for each of the entries shown.
Give bare numbers, as −log10 of the molar value.

c1ccc(-n2cc(CNCc3ccc4occc4c3)c(-c3ccncc3)n2)cc1 [Compound 3] = 6.71
c1ccc(-n2cc(CNCc3ccc4c(c3)CCO4)c(-c3ccncc3)n2)cc1 [Compound 13] = 5.23

Note: attention shifts to another entry.
(Q) Lab request: please report pEC50 under test system μ opioid receptor (Homo sapiens, UniProt P35372) for c1ccc(-n2cc(CNCc3ccc4c(c3)OCO4)c(-c3ccncc3)n2)cc1 [Compound 12]
(A) 4.63

====

Kindly state EC50 for each of the entries shown.
Target: UniProtKB P35372
Assay: μ opioid receptor agonism, G protein signaling pathway
Assay type: cell-based
Conditions: μ opioid receptor, G protein pathway; read-out: EC50 (G protein)
Give bare numbers, in nM.

Some solved cases for reference:
c1ccc(-n2cc(CNCc3ccc4c(c3)CCO4)c(-c3ccncc3)n2)cc1 = 6.26
c1ccc(-n2cc(CNCc3ccc4occc4c3)c(-c3ccncc3)n2)cc1 = 1.24

Note: attention shifts to another entry.
(Q) Entry c1ccc(-n2cc(CNCc3ccc4c(c3)OCO4)c(-c3ccncc3)n2)cc1 has what EC50?
(A) 10.5
